System: acute HIV infection of T-lymphoid cells
Experiment: Assay for inhibition of HIV replication (spread assay)
Assay type: cell-based, HIV-1
Settings: Human immunodeficiency virus 1, T-lymphoid; read-out: Spread - IC95
What IC95 was measured for each of the following?
One number for each entry, in nM.

Example results:
INSERT INTO results (molecule, subject_of_test, quantity_measured, measured) VALUES
  ('CCCN([C@H](CO)CCC[C@H](C)NC(=O)[C@@H](NC(=O)OC)C(c1cccc(F)c1)c1cccc(F)c1)S(=O)(=O)c1ccc(N)cc1', 'acute HIV infection of T-lymphoid cells', 'IC95', 18),
  ('COC(=O)N[C@H](C(=O)N[C@@H](C)CCC[C@@H](CO)N(CC1CC1)S(=O)(=O)c1ccc(N)cc1)C(c1ccccc1)c1ccccc1', 'acute HIV infection of T-lymphoid cells', 'IC95', 15),
  ('COC(=O)N[C@H](C(=O)N[C@H](CCC[C@@H](CO)N(CCC(C)C)S(=O)(=O)c1ccc(C(C)=O)cc1)C1CC1)C(c1ccc(F)cc1)c1ccc(F)cc1', 'acute HIV infection of T-lymphoid cells', 'IC95', 47);

// input: 8 compounds below; output: IC95 for each
1. CC[C@@H](CCC[C@@H](CO)N(C(C)C)S(=O)(=O)c1ccc(N)cc1)NC(=O)[C@@H](NC(=O)OC)C(c1ccccc1)c1ccccc1
2. COC(=O)N[C@H](C(=O)N[C@H](CCC[C@@H](CO)N(C)S(=O)(=O)c1ccc(CO)cc1)C1CC1)C(c1ccccc1)c1ccccc1
3. COC(=O)N[C@@H](Cc1ccccc1Cl)C(=O)N[C@H](CCC[C@@H](CO)N(CCC(C)C)S(=O)(=O)c1ccc([C@H](C)O)cc1)C1CC1
4. CN[C@H](C(=O)N[C@H](CCC[C@@H](CO)N(CC(C)C)S(=O)(=O)c1ccc(CO)cc1)C1CC1)C(c1ccccc1)c1ccccc1
5. COC(=O)N[C@H](C(=O)N[C@@H](C)CCC[C@@H](CO)N(C(C)C)S(=O)(=O)c1ccc([C@H](C)O)cc1)C(c1ccccc1)c1ccccc1
6. CC[C@@H](CCC[C@@H](CO)N(CCC(C)C)S(=O)(=O)c1ccc(N)c(F)c1)NC(=O)[C@@H](NC(=O)OC)C(c1ccccc1)c1ccccc1
7. CCCN([C@H](CO)CCC[C@H](CC)NC(=O)[C@H](Cc1ccccc1Cl)NC(=O)OC)S(=O)(=O)c1ccc(N)cc1
8. COC(=O)N[C@H](C(=O)N[C@H](CCC[C@@H](CO)N(CCC(C)C)S(=O)(=O)c1ccc(Cl)cc1)C1CC1)C(c1ccccc1)c1ccccc1

A:
199
187
42
17
19
12
249
22

Here are 3 compounds. What values of IC95 were reported for them?
1. COC(=O)N[C@H](C(=O)N[C@H](C)CCC[C@@H](CO)N(CCC(C)C)S(=O)(=O)c1ccc(CO)cc1)C(c1ccccc1)c1ccccc1
2. COC(=O)N[C@H](C(=O)N[C@@H](C)CCC[C@@H](CO)N(CC(C)C)S(=O)(=O)c1ccc(CO)cc1)C(c1ccccc1)c1ccccc1
3. COC(=O)N[C@H](C(=O)N[C@@H](C)CCC[C@@H](CO)N(C(C)C)S(=O)(=O)c1ccc(C(C)=O)cc1)C(c1ccccc1)c1ccccc1

A:
[192, 8, 41]

The origin of these recorded values is patent US20100093811A1.
